# Experimental Target: T1, TNFR1 (Homo sapiens, UniProt P19438)
# T1 chain: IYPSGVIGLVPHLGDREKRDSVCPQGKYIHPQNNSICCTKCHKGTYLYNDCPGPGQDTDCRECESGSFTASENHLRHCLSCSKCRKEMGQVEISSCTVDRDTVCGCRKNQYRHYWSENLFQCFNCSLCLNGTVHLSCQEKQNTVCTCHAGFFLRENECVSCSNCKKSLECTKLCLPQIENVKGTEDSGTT
# Assay Name: yeast display SC50

# Binder, apparent Kd (screen) / nM
data = [
    ("K64H (designed binder) SMEEEVEKAAKEYEKKKKEAIEKHLEKLKAKDKEAAERFLKELEEAAKEYAKDEAKTMSEEEAHRRAKKYKEKVLLSELSEEEQKEIKEAEEKLVRTILKYVEEAAK", 0.593),
    ("F39E (designed binder) SMEEEVEKAAKEYEKKKKEAIEKHLEKLKAKDKEAAERELKELEEAAKEYAKDEAKTMSEEEAKRRAKKYKEKVLLSELSEEEQKEIKEAEEKLVRTILKYVEEAAK", 4.83),
    ("S77F (designed binder) SMEEEVEKAAKEYEKKKKEAIEKHLEKLKAKDKEAAERFLKELEEAAKEYAKDEAKTMSEEEAKRRAKKYKEKVLLFELSEEEQKEIKEAEEKLVRTILKYVEEAAK", 1.05),
    ("A30S (designed binder) SMEEEVEKAAKEYEKKKKEAIEKHLEKLKSKDKEAAERFLKELEEAAKEYAKDEAKTMSEEEAKRRAKKYKEKVLLSELSEEEQKEIKEAEEKLVRTILKYVEEAAK", 0.718),
    ("S59N (designed binder) SMEEEVEKAAKEYEKKKKEAIEKHLEKLKAKDKEAAERFLKELEEAAKEYAKDEAKTMNEEEAKRRAKKYKEKVLLSELSEEEQKEIKEAEEKLVRTILKYVEEAAK", 1.69),
    ("E104L (designed binder) SMEEEVEKAAKEYEKKKKEAIEKHLEKLKAKDKEAAERFLKELEEAAKEYAKDEAKTMSEEEAKRRAKKYKEKVLLSELSEEEQKEIKEAEEKLVRTILKYVELAAK", 0.49),
    ("R66M (designed binder) SMEEEVEKAAKEYEKKKKEAIEKHLEKLKAKDKEAAERFLKELEEAAKEYAKDEAKTMSEEEAKRMAKKYKEKVLLSELSEEEQKEIKEAEEKLVRTILKYVEEAAK", 26.9),
    ("E61N (designed binder) SMEEEVEKAAKEYEKKKKEAIEKHLEKLKAKDKEAAERFLKELEEAAKEYAKDEAKTMSENEAKRRAKKYKEKVLLSELSEEEQKEIKEAEEKLVRTILKYVEEAAK", 1.4),
    ("E54D (designed binder) SMEEEVEKAAKEYEKKKKEAIEKHLEKLKAKDKEAAERFLKELEEAAKEYAKDDAKTMSEEEAKRRAKKYKEKVLLSELSEEEQKEIKEAEEKLVRTILKYVEEAAK", 20.2),
    ("V6Y (designed binder) SMEEEYEKAAKEYEKKKKEAIEKHLEKLKAKDKEAAERFLKELEEAAKEYAKDEAKTMSEEEAKRRAKKYKEKVLLSELSEEEQKEIKEAEEKLVRTILKYVEEAAK", 0.446),
    ("K56V (designed binder) SMEEEVEKAAKEYEKKKKEAIEKHLEKLKAKDKEAAERFLKELEEAAKEYAKDEAVTMSEEEAKRRAKKYKEKVLLSELSEEEQKEIKEAEEKLVRTILKYVEEAAK", 2.73),
    ("E82S (designed binder) SMEEEVEKAAKEYEKKKKEAIEKHLEKLKAKDKEAAERFLKELEEAAKEYAKDEAKTMSEEEAKRRAKKYKEKVLLSELSESEQKEIKEAEEKLVRTILKYVEEAAK", 0.49),
    ("Y13E (designed binder) SMEEEVEKAAKEEEKKKKEAIEKHLEKLKAKDKEAAERFLKELEEAAKEYAKDEAKTMSEEEAKRRAKKYKEKVLLSELSEEEQKEIKEAEEKLVRTILKYVEEAAK", 1.54),
    ("E89W (designed binder) SMEEEVEKAAKEYEKKKKEAIEKHLEKLKAKDKEAAERFLKELEEAAKEYAKDEAKTMSEEEAKRRAKKYKEKVLLSELSEEEQKEIKWAEEKLVRTILKYVEEAAK", 1.69),
    ("R38C (designed binder) SMEEEVEKAAKEYEKKKKEAIEKHLEKLKAKDKEAAECFLKELEEAAKEYAKDEAKTMSEEEAKRRAKKYKEKVLLSELSEEEQKEIKEAEEKLVRTILKYVEEAAK", 2.25),
    ("L76Y (designed binder) SMEEEVEKAAKEYEKKKKEAIEKHLEKLKAKDKEAAERFLKELEEAAKEYAKDEAKTMSEEEAKRRAKKYKEKVLYSELSEEEQKEIKEAEEKLVRTILKYVEEAAK", 2.05),
]
